Examples of molecules with documented %Inh follow.
- Test system: TNNI3K;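 note: KINOMEscan kinase panel screen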
- SETUP CONDITIONS: concentration: 1 μM, replicates: in singlicate; n = 1
Provide the reading as a plain figure in %.

NCC(NC(=O)c1cc(-c2cn[nH]c2)c(-c2ccnc3[nH]ccc23)s1)c1ccccc1.O=C(O)C(F)(F)F.O=C(O)C(F)(F)F (stereo not drawn) [GSK1325775]
0
CN1c2ccc(NCc3ccc(F)cc3)cc2-c2c(cnn2C)S1(=O)=O
2
Nc1nc(-c2ccc3c(N)n[nH]c3c2)cc(N2CCCC2)n1 [GSK2227430]
0
COc1cc(Nc2nccc(N3CCC(NC(=O)c4cccc(NC(C)=O)c4)C3)n2)cc(OC)c1OC (stereo not drawn) [GSK1379754]
0
O=C(NCCNc1ccnc(Nc2ccc(F)cc2)n1)c1cc2ccccc2s1 [GSK1379874]
0
CCc1nc(-c2cccc(C)c2)c(-c2ccnc(NCc3ccccc3)c2)s1
0

*Q* Find the recorded %Inh belonging to O=C1Cc2cc(Nc3nc(NCc4cccc(S(=O)(=O)C(F)(F)F)c4)ncc3C(F)(F)F)ccc2N1 and report it.
*A* 0

*Q* Same lookup for O=c1cc(N2CCOCC2)nc2n(Cc3cccc4ccccc34)ccn12 [GSK2333389] , please.
*A* 0

*Q* Same lookup for CN(C(=O)c1ccc(-c2cc(-c3c[nH]nc3-c3ccccn3)ccn2)cc1)C1CCOCC1 [GW810083] , please.
*A* 0

*Q* Same lookup for CN(C1=C(c2ccccc2)C(=O)NC1=O)c1ccccc1 [SB-334860] , please.
*A* 20

*Q* Same lookup for c1ccc(-c2cc(-c3c[nH]nc3-c3ccccn3)ccn2)cc1 [GW576604] , please.
*A* 89

*Q* Same lookup for CN1c2ccc(CNc3ccc(F)cc3)cc2-c2c(cnn2C)S1(=O)=O , please.
*A* 0

*Q* Same lookup for Cl.Cl.Cl.Fc1ccc(-c2ncn(C3CCNCC3)c2-c2ccnc(Nc3ccccc3)n2)cc1 [SB-238039] , please.
*A* 0

*Q* Same lookup for COc1ccc(Nc2nccc(N3CCC(NC(=O)Nc4cc(C)ccc4C)C3)n2)cc1 (stereo not drawn) [GSK1379741] , please.
*A* 0

*Q* Same lookup for NS(=O)(=O)c1cccc(-c2ccc3ncc(N4CCOCC4)nc3c2)c1 [GSK1535721] , please.
*A* 14

*Q* Same lookup for COc1cc2ncn(-c3cc(OCc4sccc4Cl)c(C(N)=O)s3)c2cc1OC [GSK448459] , please.
*A* 0

*Q* Same lookup for COC(=O)Nc1nc2cc(Oc3ccc(NC(=O)Nc4cc(F)ccc4F)cc3)ccc2[nH]1.Cl [GW701424] , please.
*A* 81

*Q* Same lookup for O=C(NCCNc1ccnc(Nc2ccc(F)cc2)n1)Nc1ccccc1F [GSK1379880] , please.
*A* 5

// provenance: paper PMC5540273
